System: DLD1
Assay: TCF/Wnt firefly luciferase reporter signal relative to plate median (fraction of plate median); higher = higher Wnt reporter signal
Conditions: 5 µM; treatment time 24 h; reporter: 7TFP
// reported TCF/Wnt firefly luciferase reporter signal per item
readout-type: TCF/Wnt firefly luciferase reporter signal

Cc1cc(C)nc(NS(=O)(=O)c2ccc(N)cc2)n1 | 1.02
CC(=O)O[C@@H]1c2c(ccc3ccc(=O)oc23)OC(C)(C)[C@@H]1OC(=O)CC(C)C | 0.875
CC(=O)O[C@H]1CC[C@]2(C)[C@H]3CC=C4[C@@H]5CC(C)(C)CC[C@]5(C)CC[C@@]4(C)[C@]3(C)CC[C@H]2C1(C)C [beta-AMYRIN ACETATE] | 1.15
CCc1cccc2c3c([nH]c12)C(CC)(CC(=O)O)OCC3 (stereo unspecified) | 1.04
COc1cc(C2Oc3cc([C@H]4Oc5cc(O)cc(O)c5C(=O)[C@@H]4O)ccc3OC2CO)ccc1O (stereo partly specified) | 0.993
N=C(N)N | 0.924
O=C(O)c1cc(O)c(=O)c2c(O)c(O)ccc2c1 | 1.05
COc1cc(/C=C/C(=O)CC(=O)/C=C/c2ccc(O)c(OC)c2)ccc1O | 1.13
COc1ccc([C@@H]2CC(=O)c3c(O)cc(O)cc3O2)cc1O | 1.02
COc1ccc(CN(CCN(C)C)c2ccccn2)cc1 | 0.96
CC[C@@H](CO)NCCN[C@@H](CC)CO | 1.2
CCOC(=O)c1ncn2c1CN(C)C(=O)c1cc(F)ccc1-2 | 0.996
CCCNC(=O)NS(=O)(=O)c1ccc(Cl)cc1 | 0.968
CC(=O)c1oc2c(C)c3oc(=O)cc(C)c3cc2c1C [2-Acetyl-3,5,9-trimethylfuro[3,2-g]-chromen-7-one (VFT-04)] | 1.16
CC(=O)NCCCS(=O)(=O)O | 1.12
CC(C)NC[C@@H](O)COc1cccc2ccccc12 | 1.01
CC(=O)Oc1ccc2c(c1C(C)C)CCC1C(C)(C)CCC[C@]21C (stereo partly specified) | 0.98
CCOC(=O)N1CCC(=C2c3ccc(Cl)cc3CCc3cccnc32)CC1 | 1.08
CC(C)C[C@H]1NC(=O)[C@@H](NC(=O)c2ncccc2O)[C@@H](C)OC(=O)[C@H](c2ccccc2)N(C)C(=O)[C@H](C)NC(=O)[C@H]([C@@H](C)C(C)C)N(C)C(=O)CN(C)C(=O)[C@H]2C[C@@H](O)CN2C1=O | 1.12
CN1C(=O)CC[C@H]1c1cccnc1 | 1.06
CC(=O)O[C@H]1C[C@@H](O)C(C)(C)[C@@H]2C[C@@H](OC(C)=O)[C@]3(C)[C@H](CC[C@@]4(C)[C@@H](c5ccoc5)OC(=O)[C@H]5O[C@@]534)[C@@]12C | 1.04
O=c1c(O)c(-c2ccc(O)c(O)c2)oc2c(O[C@@H]3O[C@H](CO)[C@@H](O)[C@H](O)[C@H]3O)c(O)cc(O)c12 | 1.1
C=C(C)[C@@H]1CC[C@]2(C(=O)O)CC[C@]3(C)[C@H](C[C@H]4OC(=O)C[C@@H](O)[C@]5(C)[C@@H]4[C@@]3(C)CC[C@H]5C(=C)C)[C@@H]12 | 1.11
CC(C)CCC[C@@H](C)[C@H]1CC[C@H]2[C@@H]3CC(=O)[C@H]4C[C@@H](O)CC[C@]4(C)[C@H]3CC[C@]12C | 0.904
CC(=O)C1=C(O)C=C2Oc3c(C(C)=O)c(O)c(C)c(O)c3C2(C)C1=O (stereo in doubt) | 1.2
CCOC(=O)c1c(C)cc(O)c(C=O)c1O | 0.865
CCCCNc1ccc(C(=O)OCCN(C)C)cc1 | 1.1
CC(=O)O[C@H]1C[C@@H](OC(C)=O)C(C)(C)C2C[C@@H](O)[C@]3(C)C(CC[C@@]4(C)[C@H](c5ccoc5)OC(=O)[C@H]5O[C@]543)[C@]21C (stereo partly specified) | 0.977
CN(C)CCOC(c1ccccc1)c1ccccc1 | 1.2
C#C[C@]1(O)CC[C@H]2[C@@H]3CCC4=C(CCC(=O)C4)[C@H]3CC[C@@]21C | 1.07
COc1ccc2cc(CCC(C)=O)ccc2c1 | 1.24
C1N2CN3CN1CN(C2)C3 | 0.985
CC1(C)C2CC(=O)O[C@@]3(C)C4=CC(=O)O[C@@H](c5ccoc5)[C@]4(C)CCC3[C@@]2(C)C=C[C@H]1O (stereo partly specified) | 1.05
CN(C)[C@@H]1C(O)=C(C(N)=O)C(=O)[C@@]2(O)C(O)=C3C(=O)c4c(O)cccc4[C@@](C)(O)[C@H]3[C@H](O)[C@@H]12 | 0.901
CC(=O)Oc1cc(-c2coc3cc(OC(C)=O)c(OC(C)=O)c(OC(C)=O)c3c2=O)cc(OC(C)=O)c1OC(C)=O | 1.09
C[C@H]1COC2=C1C(=O)C(=O)c1c2ccc2c1CCCC2(C)C | 1.05
